target: Glucose transporter (Leishmania mexicana); test: ST_JUDE_LEISH: Cytotoxicity at 2uM final concentration against transgenic Leishmania Mexicana promastigotes LmGT2 that are glucose transport deficient and complemented with the L. Mexicana glucose transporter 2. Activity is measured by DNA content using SYBR green in vitro; format: functional
assay readout: inhibition (%)

INSERT INTO assay_data (compound, reading) VALUES
  ('COc1ccc2nc(NC(N)=NC(=O)Nc3ccccc3)nc(C)c2c1', 0.15),
  ('COc1ccc(C(=O)NC(c2ccc(Cl)cc2Cl)c2cc(Cl)c3cccnc3c2O)cc1 (stereo not drawn)', -1.58),
  ('CCc1ccc(C2CCN(CCCCNC(=O)c3ccc(-c4ccc(C#N)cc4)cc3)CC2)c(OCCO)c1', 1.5);
